Tested on: ACHN
protocolSummary: NCI tumour cell line growth inhibition, 48 h
The source made the active and inactive calls. Rule as the data show it: active = GI50 up to about 1.1 µM and inactive = higher.
// allowed return values: active, inactive

Task: Dear colleague, could you share the recorded outcome for O=C1Nc2ccccc2C1(O)C/C(=N/O)c1ccc2ccccc2c1 (stereo not given) when you have a moment?
Result: inactive

Task: Now try C[n+]1[se]c2ccccc2c1Cl .
Result: inactive

Task: How about this molecule: COc1cc(C2c3cc4c(cc3OC(NNC(N)=S)C2C)OCO4)cc(OC)c1OC (stereo not given)
Result: active

Task: Try this molecule too: CSCC1CC(c2ccc(Cl)cc2)=NO1 (stereo not given)
Result: inactive

Task: Okay, and CC(C)C(C=O)C(O)(C(F)(F)F)C(F)(F)F (stereo not given) ?
Result: inactive

Task: Next up: C=C1C2CCC3(CCC4C5(C)CCCC4(C=[N+](CCO)C5)C3C2)C1O (stereo not given)
Result: inactive

Task: Field entry: Cn1cnc(N)c(N=O)c1=O
Result: inactive

Task: Proceed to O=C1C2C3C=C4c5ccccc5N(c5ccccc5)C4(C2C(=O)N1Cc1ccccc1)C1C(=O)N(Cc2ccccc2)C(=O)C31 (stereo not given)
Result: inactive

Task: Subsequent entry: CCCCCCCCCCC(O)C1CCC(C(O)CCC(O)C2CCC(CCCCCCC[C@H](O)CC3=C[C@@H](C)OC3=O)O2)O1 (stereo not given in full)
Result: inactive

Task: CC[N+]1(C)CCC(O)(/C=C/c2ccc(Cl)c(Cl)c2)C(C(=O)/C=C/c2ccc(Cl)c(Cl)c2)C1 (stereo not given) ?
Result: inactive

----------
Tested on: HOP-92
protocolSummary: NCI tumour cell line growth inhibition, 48 h
Calls of active or inactive are those of the source. Cut-off read from the data, not from the text of the source: active = GI50 up to about 1.1 µM and inactive = higher.
Field 'call' accepts active, inactive

Task: Per the assay record, what outcome was assigned to CC(C)C1(O)C(c2ccccc2)=C(c2ccccc2)C(c2ccccc2)=C1c1ccccc1 ?
Result: inactive

Task: Then what about the compound O=c1[nH]nc(Cc2ccccc2)n1/N=C\c1ccccc1 ?
Result: inactive

Task: What do you get for Cc1ccc(S(=O)(=O)N/N=C2\CC3CC4CCC2C4C3)cc1 (stereo unspecified) ?
Result: inactive

Task: Same question, Cc1ccc2c(O)cc(-c3cccc4ccccc34)nc2n1 this time
Result: active

Task: # iterate: CN(c1ccccc1)C(c1ccccc1)C(O)c1ccccc1 (stereo unspecified)
Result: inactive

Task: Moving on to O=CN/C=C/c1cc(O)ccc1O [ERBSTATIN]
Result: inactive

----------
Test system: DLD-1
protocolSummary: NCI tumour cell line growth inhibition, 48 h
Activity calls are given as the source filed them. Cut-off read from the data, not from the text of the source: active = GI50 up to about 1.1 µM and inactive = higher.
Write down the outcome that applies. Available outcomes: active, inactive

Task: Dear colleague, could you share the recorded outcome for C=C1C(=O)OC2/C=C(\CO)C(OC(C)=O)CC(O)/C(C)=C/C(OC(=O)C(C)CC)C12 (stereo unspecified) when you have a moment?
Result: inactive

Task: Check CC(=O)Oc1ccc(C(c2ccc(OC(C)=O)cc2)c2ccccn2)cc1 too.
Result: inactive

Task: What would you report for c1ccc2c(c1)[Se]c1ccccc1[Se]2 ?
Result: inactive

Task: Check O=C1Nc2ccccc2C1(O)C/C(=N/O)c1ccc2ccccc2c1 (stereo unspecified) too.
Result: inactive

Task: Try the compound CN(C)CCNC(=O)c1cc(Cl)cc2cc3ccccc3nc12
Result: active

Task: // repeat for COc1ccc(/N=N/c2c(-c3ccccc3)nn(C(=O)CC(=O)Nc3ccccc3Cl)c2-c2ccccc2)cc1 and report
Result: inactive

Task: Follow-up item: NCCCC(N)(C(=O)O)C(F)F (stereo unspecified)
Result: inactive

Task: Next entry: OC/C=C(\I)CCCOCOCc1ccccc1
Result: inactive

Task: Let us now turn to c1ccc2c(c1)SCCc1cn[nH]c1-2
Result: inactive

Task: And what about the compound Cc1cc(NC(=O)C2C3C=CC(O3)C2C(=O)O)no1 (stereo unspecified) ?
Result: inactive

Task: Ok, now CCCCCCCCCCCCC(Br)C(=O)NCC(N)=O (stereo unspecified)
Result: inactive

----------
System: CAKI-1
protocolSummary: NCI tumour cell line growth inhibition, 48 h
The source made the active and inactive calls. Rule as the data show it: active = GI50 up to about 1.1 µM and inactive = higher.
Returns: one label drawn from true = active, false = inactive

Task: Assay result, entry O=C(NCCOC(=O)OCCNC(=O)NC1CCCCC1)NC1CCCCC1 — outcome?
Result: false

Task: Next record, please: CCCCCCCCCCCCCC(=O)OCC(CCS(=O)(=O)O[C@H]1CC[C@@]2(C)C(=CC[C@@H]3C2CC[C@]2(C)C(=O)CCC32)C1)OC(=O)CCCCCCCCCCCCC (some centres not stated)
Result: false

Task: Input COC(=O)C1C(O)C(C)C(O)C(C)(O)/C=C\C=C(C)C(=O)Nc2c(C)c(OC(C)=O)c3c(c2O)C(=O)C(C)=C2OCOC(=C23)C(C)=CC(C)(O)C(O)C(C)C1OC(C)=O (configuration not stated)
Result: false

Task: Ok, now CCOP(=O)(OCC)OC1CC(n2cc(C)c(=O)n(C)c2=O)OC1CO[Si](C)(C)C(C)(C)C (configuration not stated)
Result: false

Task: Same read-out for O=C(c1ccc2ccccc2c1)N(Cc1cccnc1)C(=S)N(Cc1cccnc1)C(=O)c1ccc2ccccc2c1 ?
Result: false

Task: Input COc1cc(/C=N/NC(=O)c2c(Cl)c(Cl)c(Cl)c(Cl)c2-c2nc3ccccc3[nH]2)ccc1O
Result: false

Task: Same lookup for COc1ccc(C(=O)Nc2ccc(O)c(=O)cc2)cc1 , please.
Result: false

Task: Same thing, different compound: CC(C)C(Cl)CCC(C)(Cl)C(=O)CBr (configuration not stated)
Result: false

Task: Also need C[S+](C)CC1OC(n2cnc3c(N)ncnc32)C(O)C1O (configuration not stated) , thanks.
Result: false

Task: N/N=C(\C(=O)Nc1c(Cl)cc([N+](=O)[O-])cc1Cl)C(c1cnc2ccc([N+](=O)[O-])cc2n1)[N+](=O)[O-] (configuration not stated) , same question.
Result: false

Task: Repeat with O=c1cc(NNc2cccc(Cl)c2)[nH]c(=O)[nH]1
Result: false

Task: Also C[C@]12CC[C@@H]3c4cc(Br)c(O)c(Br)c4CC[C@H]3[C@@H]1CCC2=O ?
Result: false

Task: And for CC/C(Cl)=N\OC(=O)Nc1ccc(F)cc1F ?
Result: false

Task: Same question for CC(C)C1CSC2N1C(=O)C2(OCc1ccccc1)C1CC1 (configuration not stated) please.
Result: false

Task: Ok, now CC(=O)OC1(Sc2ccccc2)CC2[C@H]3COC(C)(C)O[C@H]3CC[C@@]2(C)CC1=O (some centres not stated)
Result: false

Task: Query CCCCCCCCCCCCCCCCNc1nc(=O)n(C2CC(O)C(COP(=O)(O)OC3CC(n4cc(F)c(=O)[nH]c4=O)OC3CO)O2)cc1F (configuration not stated) next
Result: true

Task: Consider next the compound CO[C@H]1C[C@H](O[C@H]2CC[C@]3(C=O)[C@H]4CC[C@]5(C)[C@@H](C6=CC(=O)OC6)CC[C@]5(O)[C@@H]4CC[C@]3(O)C2)O[C@H](C)[C@H]1O[C@@H]1O[C@H](CO)[C@@H](O)[C@H](O)[C@H]1O in the same way.
Result: true

----------
Test system: HL-60
protocolSummary: NCI tumour cell line growth inhibition, 48 h
Active and inactive are the calls of the source. No stated cut-off is given here; in the data, active = GI50 up to about 1.1 µM and inactive = higher.
Pick from 1 (active), -1 (inactive) when you respond.

Task: Look up the recorded call for C=C(CS(=O)(=O)c1ccccc1)[P+](c1ccccc1)(c1ccccc1)c1ccccc1 in this test.
Result: -1

Task: Now the same for CCOC(=O)C(NCc1cccc(C(F)(F)F)c1)(NC(=O)CC)C(F)(F)F (stereo not given)
Result: -1

Task: Repeat for the following compound: CO[C@H]1C[C@H](O[C@H]2CC[C@]3(C=O)[C@H]4CC[C@]5(C)[C@@H](C6=CC(=O)OC6)CC[C@]5(O)[C@@H]4CC[C@]3(O)C2)O[C@H](C)[C@H]1O[C@@H]1O[C@H](CO)[C@@H](O)[C@H](O)[C@H]1O
Result: 1

Task: What about this compound? CCOC(=O)/C=C/c1c[nH]c(C(=O)OCC)c1
Result: -1

Task: Note, next up: CC[C@H]1CN2CCc3cc(OC)c(OC)cc3[C@@H]2C[C@@H]1C[C@H]1NCCc2cc(O)c(OC)cc21
Result: 1

----------
Test system: NCI-H460
protocolSummary: NCI tumour cell line growth inhibition, 48 h
Calls of active or inactive are those of the source. Cut-off read from the data, not from the text of the source: active = GI50 up to about 1.1 µM and inactive = higher.
# output must be one of active, inactive

Task: Entry CC#C[C@]1(O)CCC2[C@@H]3CCC4=CC(=O)CCC4=C3[C@@H](c3ccc(N(C)C)cc3)C[C@@]21C (stereo partly specified) : call = ?
Result: inactive

Task: Now give it for CSCC1CC(c2ccc(Cl)cc2)=NO1 (stereo unspecified) too.
Result: inactive

Task: // query: CCC(C)C(=O)O[C@H]1C(=O)O[C@@H]2C[C@H]3C(C)=CC(=O)[C@@H](O)[C@]3(C)[C@H]3[C@@H](O)[C@H](O)[C@@]4(C)OC[C@]32[C@@H]14 (stereo partly specified)
Result: active

Task: Can you handle CCN(CC)CCNc1c2ccccc2nc2cccc([N+](=O)[O-])c12 next?
Result: active

Task: Note, next up: CN1C(=O)C(=CNc2ccccc2[N+](=O)[O-])C(=O)N(C)C1=O
Result: inactive

Task: Another molecule: CC(C)C(Cl)CCC(C)(Cl)C(=O)CBr (stereo unspecified)
Result: inactive

Task: Same thing, different molecule: COc1cccc(SSc2cccc(OC)c2C(=O)O)c1C(=O)O
Result: inactive

Task: Input CN1CCC(OC(=O)Oc2ccccc2)(c2ccccc2)CC1
Result: inactive

Task: Note, next up: C[n+]1[se]c2ccccc2c1Cl
Result: inactive

Task: Check Cc1ccnc2nc(N)ccc12 too.
Result: inactive

Task: Repeat for the following molecule: O=C(NNC(=S)Nc1ccc(Br)cc1)c1cc(-c2ccccc2)nc2ccccc12
Result: inactive
